Target System: T1, biotinylated A93D-PNT domain (ETV6 residues 43-135, A93D, with Avitag) (human, UniProt P41212 43-135, A93D, biotin on the Avitag (~50 to 95% biotinylated))
T1 construct: ETV6, human, residues 43-135; made from the V112E construct by introducing A93D and E112V; also called biotinylated A93D-PNT domain ligand; A93D-PNT domain ligand; source: E. coli BL21 (λDE3) co-transformed with pET21a-BirA, purified (Ni-NTA, thrombin cleavage); not shown: His6, N-terminal, cleaved; Avitag, N-terminal, kept
T1 sequence (looked up): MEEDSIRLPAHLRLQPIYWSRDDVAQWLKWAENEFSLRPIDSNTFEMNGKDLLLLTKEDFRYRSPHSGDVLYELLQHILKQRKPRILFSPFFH
Test Details: SPR; biotinylated A93D-PNT domain ligand captured on streptavidin Sensor Chip SA, PNT domain analytes flowed; Biacore X100, 25 °C, HBS-EP+ (10 mM HEPES, 150 mM NaCl, 3 mM EDTA, 0.05% v/v Tween-20, pH 7.4); analyte 0.2-60 nM, re-run at 20-6000 nM if KD > 60 nM
Condition Details: both partners purified
Measured Property: koff (s⁻¹)
Could you give me the number in s⁻¹? Just the number is fine.

>>> experimental_result("Y104A-V112E-PNT domain (domain or fragment, human, UniProt P41212 40-125, looked up, ETV6 PNT domain, human; source: E. coli BL21 (λDE3), purified (Ni-NTA, thrombin cleavage); not shown: His6, N-terminal, cleaved) ALRMEEDSIRLPAHLRLQPIYWSRDDVAQWLKWAENEFSLRPIDSNTFEMNGKALLLLTKEDFRARSPHSGDELYELLQHILKQRK")
0.015

Now consider a different binder.
In: Fill in koff for record E100A-V112E-PNT domain (domain or fragment, human, UniProt P41212 40-125, looked up, ETV6 PNT domain, human; source: E. coli BL21 (λDE3), purified (Ni-NTA, thrombin cleavage); not shown: His6, N-terminal, cleaved) ALRMEEDSIRLPAHLRLQPIYWSRDDVAQWLKWAENEFSLRPIDSNTFEMNGKALLLLTKADFRYRSPHSGDELYELLQHILKQRK
Out: 0.0035
